- ASSAYED SYSTEM: T1, Kap104p (yeast (S. cerevisiae), UniProt P38217 1-918)
- T1 construct: Kap104p, yeast homolog of Kapβ2; gene a gift from J. Aitchison, subcloned into pGEX-Tev; also called yeast Karyopherin β2 homolog; source: E. coli Rosetta(DE3)pLysS, purified (glutathione sepharose, TEV cleavage, anion exchange, gel filtration)
- T1 sequence (looked up): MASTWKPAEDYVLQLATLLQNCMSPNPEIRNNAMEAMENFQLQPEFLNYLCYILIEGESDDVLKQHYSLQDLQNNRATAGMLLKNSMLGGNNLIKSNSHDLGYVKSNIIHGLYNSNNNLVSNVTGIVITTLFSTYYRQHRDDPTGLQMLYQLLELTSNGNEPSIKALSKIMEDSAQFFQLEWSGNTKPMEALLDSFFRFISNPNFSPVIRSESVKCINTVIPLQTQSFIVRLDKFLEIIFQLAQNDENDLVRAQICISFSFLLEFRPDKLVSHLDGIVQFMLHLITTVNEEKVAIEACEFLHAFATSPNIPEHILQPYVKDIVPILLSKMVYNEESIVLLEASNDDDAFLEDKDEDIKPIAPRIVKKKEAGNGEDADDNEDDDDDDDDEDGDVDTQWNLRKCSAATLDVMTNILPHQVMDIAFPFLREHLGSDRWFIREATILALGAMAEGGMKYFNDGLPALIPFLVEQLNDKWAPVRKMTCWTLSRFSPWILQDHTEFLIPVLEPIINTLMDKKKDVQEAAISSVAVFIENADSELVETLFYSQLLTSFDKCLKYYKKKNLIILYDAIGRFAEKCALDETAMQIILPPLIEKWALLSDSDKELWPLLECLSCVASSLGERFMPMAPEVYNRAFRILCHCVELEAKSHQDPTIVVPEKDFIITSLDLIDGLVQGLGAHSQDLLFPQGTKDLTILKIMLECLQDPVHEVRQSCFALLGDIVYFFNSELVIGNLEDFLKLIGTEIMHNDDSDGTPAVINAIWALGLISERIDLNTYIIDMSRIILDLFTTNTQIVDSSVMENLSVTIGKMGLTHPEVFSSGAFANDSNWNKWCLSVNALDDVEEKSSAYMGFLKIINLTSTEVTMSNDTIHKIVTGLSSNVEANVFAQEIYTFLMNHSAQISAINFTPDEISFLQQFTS
- PROTOCOL DESCRIPTION: ITC; 90–350 μM MBP-NLS titrated into 9–35 μM Kap104p in the cell; 20 °C; 20 mM Tris pH 7.5, 100 mM NaCl, 2 mM β-mercaptoethanol, 10% glycerol; 35 injections of 8 μl; single-site model
- CONDITION SET: both partners purified

BINDER	binding result
MBP–Nab2p NLS L239G (domain or fragment, S. cerevisiae, UniProt P32505 201-251, looked up, Nab2p NLS, residues 201-251; source: E. coli BL21(DE3), purified (amylose resin, cation exchange)) DNSQRFTQRGGGAVGKNRRGGRGGNRGGRNNNSTRFNPGAKALGMAGESNM	binds
MBP–Nab2p NLS L239W (domain or fragment, S. cerevisiae, UniProt P32505 201-251, looked up, Nab2p NLS, residues 201-251; also called L239 to W; source: E. coli BL21(DE3), purified (amylose resin, cation exchange)) DNSQRFTQRGGGAVGKNRRGGRGGNRGGRNNNSTRFNPWAKALGMAGESNM	binds
MBP–Nab2p NLS L239Q (domain or fragment, S. cerevisiae, UniProt P32505 201-251, looked up, Nab2p NLS, residues 201-251; also called L239 to Q; source: E. coli BL21(DE3), purified (amylose resin, cation exchange)) DNSQRFTQRGGGAVGKNRRGGRGGNRGGRNNNSTRFNPQAKALGMAGESNM	binds
